Recorded values, source paper PMC7004511.

# ASSAY_COMMENT: Pharmacokinetics of vorinostat in serum
# Format: in vivo, human
# TEST_PARAMETERS: human, po, 400 mg
PROPERTY_NAME: half-life (h)
Report as a plain number; the unit h is understood.

Give the reported value of half-life for this record: O=C(CCCCCCC(=O)Nc1ccccc1)NO [Vorinostat, suberoylanilide hydroxamic acid]
2.1

###

# ASSAY_COMMENT: Pharmacokinetics of vorinostat in serum
# Type: in vivo, human
# TEST_PARAMETERS: human, po, 300 mg
PROPERTY_NAME: Tmax (h)
Give the value, in units of h, as a plain number.

Consider the compound O=C(CCCCCCC(=O)Nc1ccccc1)NO [Vorinostat, suberoylanilide hydroxamic acid] and give its recorded Tmax.
3.3

###

# ASSAY_COMMENT: Pharmacokinetics of vorinostat in serum
# Assay type: in vivo, human
# TEST_PARAMETERS: human, po, 400 mg
PROPERTY_NAME: Tmax (h)
The answer is to be given in h; state only the numeric part.

Give a short answer stating reported Tmax for O=C(CCCCCCC(=O)Nc1ccccc1)NO [Vorinostat, suberoylanilide hydroxamic acid] .
3.5

###

# ASSAY_COMMENT: Pharmacokinetics of vorinostat in serum
# Format: in vivo, human
# TEST_PARAMETERS: human, po, 200 mg, AUC inf, median (range), vorinostat Level 1 (200 mg) oral, n=3
PROPERTY_NAME: AUC(0-inf) (µM·h)
Your answer is read as µM·h, so omit the unit and give the number.

Specify measured AUC(0-inf) for O=C(CCCCCCC(=O)Nc1ccccc1)NO [Vorinostat, suberoylanilide hydroxamic acid] .
2.83

###

# ASSAY_COMMENT: Pharmacokinetics of vorinostat in serum
# Format: in vivo, human
# TEST_PARAMETERS: read-out: C max, median (range), vorinostat Level 1 (200 mg) oral, n=3
PROPERTY_NAME: Cmax (nM)
Give a bare numeral; the unit nM is implied.

Given the compound O=C(CCCCCCC(=O)Nc1ccccc1)NO [Vorinostat, suberoylanilide hydroxamic acid] , write its reported Cmax.
615

###

# ASSAY_COMMENT: Pharmacokinetics of vorinostat in serum
# Assay type: in vivo, human
# TEST_PARAMETERS: human, po, 200 mg, AUC last, median (range), vorinostat Level 1 (200 mg) oral, n=3
PROPERTY_NAME: AUC(0-t)

For the compound O=C(CCCCCCC(=O)Nc1ccccc1)NO [Vorinostat, suberoylanilide hydroxamic acid] , give its measured AUC(0-t) value.
2.72 µM·h
